assay: acute toxicity: 50% lethal dose (LD50) by oral administration to mice; settings: mouse, in vivo
observedProperty: LD50

(Q) Which LD50 value belongs to COc1ccc(CCNCC(O)c2ccccc2OC)cc1OC (racemic) ?
(A) ~580 mg/kg
